This collection of values is drawn from ChEMBL document CHEMBL1137710.

# System: SNB-19
# EXPERIMENT: Growth inhibition of human SNB19 cells after 48 hrs by sulforhodamine B assay
# Assay type: functional
# EXPERIMENTAL_CONTEXT: SNB-19, 48 h
Entries annotated with measured LC50
READOUT_NAME: LC50

chem_smiles=Nc1cc(N)c2nc(-c3ccccc3)c(NCc3ccc(F)cc3)nc2c1 measured_target=SNB-19 val="52.5 µM"
chem_smiles=Nc1cc(N)c2nc(-c3ccccc3)c(Sc3ccc(Cl)c(Cl)c3)nc2c1 measured_target=SNB-19 val="> 100 µM"
chem_smiles=Nc1cc(N)c2nc(-c3ccccc3)c(NCc3ccc(Cl)c(Cl)c3)nc2c1 measured_target=SNB-19 val="> 100 µM"
chem_smiles=Nc1cc(N)c2nc(-c3ccccc3)c(Oc3ccc(F)cc3)nc2c1 measured_target=SNB-19 val="66.1 µM"
chem_smiles=Nc1cc(N)c2nc(-c3ccccc3)c(Sc3ccc(F)cc3)nc2c1 measured_target=SNB-19 val="87.1 µM"
chem_smiles=COc1ccc(Sc2nc3cc(N)cc(N)c3nc2-c2ccccc2)cc1 measured_target=SNB-19 val="> 100 µM"
chem_smiles=COc1ccc(Oc2nc3cc(N)cc(N)c3nc2-c2ccccc2)cc1 measured_target=SNB-19 val="> 100 µM"
chem_smiles=COc1cc(CNc2nc3cc(N)cc(N)c3nc2-c2ccccc2)cc(OC)c1 measured_target=SNB-19 val="> 100 µM"
chem_smiles=Nc1cc(N)c2nc(-c3ccccc3)c(Oc3ccc(Cl)c(Cl)c3)nc2c1 measured_target=SNB-19 val="> 100 µM"
chem_smiles=COc1ccc(CNc2nc3cc(N)cc(N)c3nc2-c2ccccc2)cc1 measured_target=SNB-19 val="> 100 µM"
chem_smiles=COc1cc(CNc2nc3cc(N)cc(N)c3nc2-c2ccccc2)cc(OC)c1OC measured_target=SNB-19 val="> 50.1 µM"
chem_smiles=COc1ccc(CNc2nc3cc(N)cc(N)c3nc2-c2ccccc2)cc1OC measured_target=SNB-19 val="> 100 µM"
